assay: Approximate solubility at 25° C. (visual observation); type: physicochemical; details: 2-MeTHF, organic solvent or mixture, thermodynamic from solid, polymorph screening batch
OBSERVATION TYPE: Solubility

Identify Solubility associated with the compound N#Cc1c(-c2cc(NC(=O)c3cc(F)cc(C(F)(F)F)c3)c3c(c2)C(=O)N[C@H]3c2cc(F)ccc2Cl)ccc2ncnn12 [Compound I-1]
5000 to 6000 µg/mL

###

experiment: Approximate solubility at 25° C. (visual observation); type: physicochemical; details: chloroform, organic solvent or mixture, thermodynamic from solid, polymorph screening batch
OBSERVATION TYPE: Solubility

In one line, give reported Solubility of the entry N#Cc1c(-c2cc(NC(=O)c3cc(F)cc(C(F)(F)F)c3)c3c(c2)C(=O)N[C@H]3c2cc(F)ccc2Cl)ccc2ncnn12 .
< 5000 µg/mL

Origin of values: patent US20260125374A1
